# System: CD2F1 mice, L1210 leukemia ip, survival T/C
# assay_summary: NCI In Vivo Anticancer Drug Screen. Data for tumor model L1210 Leukemia (intraperitoneal) in CD2F1 (CDF1) mice
# condition_parameters: endpoint: mean survival time; dose: 6.25 mg/kg/injection; schedule: Q04DX003 (ip); vehicle: saline with Tween-80; higher = longer survival
Toxic doses and inconclusive results are not listed.
Each entry below carries its recorded T/C.

Some solved entries appear below for comparison.
>  <compound>
CC([NH-])CC(C)[NH-].[I][Pt+2][I] (stereo not drawn)

>  <assayed_system>
CD2F1 mice, L1210 leukemia ip, survival T/C

>  <T/C>
113 % of control

$$$$
>  <compound>
CNC(C)c1ccc(C)cc1 (stereo not drawn)

>  <assayed_system>
CD2F1 mice, L1210 leukemia ip, survival T/C

>  <T/C>
98 % of control

$$$$
>  <compound>
CC([NH-])C([NH-])O.[I][Pt+2][I] (stereo not drawn)

>  <assayed_system>
CD2F1 mice, L1210 leukemia ip, survival T/C

>  <T/C>
97 % of control

$$$$

Request: Entry under review: `CC(=O)[O][Hg][c]1cc(-c2ccc(N=Nc3c(S(=O)(=O)O)cc4cccc(N)c4c3O)cc2)ccc1N=Nc1c(S(=O)(=O)O)cc2cccc(N)c2c1O` . Reported T/C?
Result: 98 % of control

Request: Likewise for `CCCCCCCCCCCCCCCC(=O)N(C/C=C/CN(CCCN(C)C)C(=O)CCCCCCCCCCCCCCC)CCCN(C)C` ?
Result: 95 % of control

Request: `Cl` ?
Result: 100 % of control

Request: What do you have for CCC(O)C[As](=O)(O)c1ccccc1Cl (stereo not drawn) ?
Result: 107 % of control

Request: Record: CC(O)C[As](=O)(O)c1ccc(Cl)cc1 (stereo not drawn)
Result: 95 % of control
